System: Human rhinovirus sp.
Run description: Antiviral activity against human rhinovirus 16
Assay type: functional, organism-based
Outcome measure: IC50
Numeric answer plus unit only.

Q: Report measured IC50; entry is C#C/C=C(\c1ccccc1)c1ccc2nc(N)n(S(=O)(=O)C(C)C)c2c1
Ans: 0.039 µg/mL

Q: Complete the entry with IC50 for C#C/C=C(\c1ccc(F)c(F)c1)c1ccc2nc(N)n(S(=O)(=O)C(C)C)c2c1
Ans: 0.55 µg/mL

Q: Provide only the value of recorded IC50 for C#C/C=C(\c1cc(F)cc(F)c1)c1ccc2nc(N)n(S(=O)(=O)C(C)C)c2c1
Ans: 0.26 µg/mL

Q: Fill in IC50 for record C#C/C=C(\c1ccc(N(C)C)cc1)c1ccc2nc(N)n(S(=O)(=O)C(C)C)c2c1
Ans: 0.08 µg/mL

Q: Supply IC50 value. Item: C#C/C=C(\c1ccc(OC)cc1)c1ccc2nc(N)n(S(=O)(=O)C(C)C)c2c1
Ans: 0.029 µg/mL

Q: Annotate the molecule C#C/C=C(\c1cccc(F)c1)c1ccc2nc(N)n(S(=O)(=O)C(C)C)c2c1 with its measured IC50.
Ans: 0.057 µg/mL

Q: Could you please provide reported IC50 for C#C/C=C(/c1ccc2nc(N)n(S(=O)(=O)C(C)C)c2c1)c1ccccc1F ? Thanks!
Ans: 0.07 µg/mL

Q: Given C#C/C=C(\c1cccc(Cl)c1)c1ccc2nc(N)n(S(=O)(=O)C(C)C)c2c1 , respond with its IC50.
Ans: 0.19 µg/mL

Q: Identify IC50 associated with the molecule C#C/C=C(\c1ccc(OC)c(F)c1)c1ccc2nc(N)n(S(=O)(=O)C(C)C)c2c1
Ans: 0.06 µg/mL

Q: Fill in IC50 for record C#C/C=C(/c1ccc2nc(N)n(S(=O)(=O)C(C)C)c2c1)c1cc(F)ccc1F
Ans: 0.099 µg/mL

Q: Return value of IC50 for input CC#C/C=C(\c1cccc(F)c1)c1ccc2nc(N)n(S(=O)(=O)C(C)C)c2c1 , no commentary.
Ans: 0.09 µg/mL

Q: Given C#C/C=C(\c1ccc(F)cc1)c1ccc2nc(N)n(S(=O)(=O)C(C)C)c2c1 , respond with its IC50.
Ans: 0.098 µg/mL

Q: State, in one line, measured IC50 of C#C/C=C(\c1cccc(F)c1)c1ccc2nc(N)n(S(=O)(=O)N(C)C)c2c1
Ans: 0.04 µg/mL

Q: # return recorded IC50 for entry C#C/C=C(\c1ccc(OC(F)(F)F)cc1)c1ccc2nc(N)n(S(=O)(=O)C(C)C)c2c1
Ans: 0.22 µg/mL

---

Run description: Antiviral activity against human rhinovirus 14 (HRV-14) using CPE/XTT assay in human tumor cell lines.
Format: organism-based, human rhinovirus type 14
Experimental parameters: read-out: TC50 (the source's name)
Under this convention, label 1 denotes CC50 strictly below 6 µg/mL and label 0 denotes CC50 at or above 6 µg/mL.

Q: Please indicate whether the reported CC50 of C#C/C=C(\c1ccc(OC)cc1)c1ccc2nc(N)n(S(=O)(=O)C(C)C)c2c1 is strictly below 6 µg/mL.
Ans: label 1

Q: Just wondering, is CC50 of C#C/C=C(\c1ccc(F)c(F)c1)c1ccc2nc(N)n(S(=O)(=O)C(C)C)c2c1 below 6 µg/mL?
Ans: label 0

Q: Threshold test, CC50 < 6 µg/mL: C#C/C=C(\c1ccc(OC)c(F)c1)c1ccc2nc(N)n(S(=O)(=O)C(C)C)c2c1
Ans: label 1

Q: Hi there! Is CC50 for C#C/C=C(\c1ccccc1)c1ccc2nc(N)n(S(=O)(=O)C(C)C)c2c1 below 6 µg/mL, do you know?
Ans: label 0

Q: A record lists C#C/C=C(\c1cc(F)cc(F)c1)c1ccc2nc(N)n(S(=O)(=O)C(C)C)c2c1 . Is its CC50 below 6 µg/mL?
Ans: label 0

Q: is_below(CC50, 6 µg/mL) for C#C/C=C(\c1cccc(F)c1)c1ccc2nc(N)n(S(=O)(=O)C(C)C)c2c1 ?
Ans: label 1

Q: Decide: CC50 of C#C/C=C(\c1ccc(F)cc1)c1ccc2nc(N)n(S(=O)(=O)C(C)C)c2c1 strictly below 6 µg/mL?
Ans: label 1

Q: Determine if C#C/C=C(\c1cccc(F)c1)c1ccc2nc(N)n(S(=O)(=O)N(C)C)c2c1 shows CC50 strictly lower than 6 µg/mL.
Ans: label 0
